Data provenance: patent US11339151B2

- test system: UniProtKB Q12809
- Sequence (Q12809 whole entry): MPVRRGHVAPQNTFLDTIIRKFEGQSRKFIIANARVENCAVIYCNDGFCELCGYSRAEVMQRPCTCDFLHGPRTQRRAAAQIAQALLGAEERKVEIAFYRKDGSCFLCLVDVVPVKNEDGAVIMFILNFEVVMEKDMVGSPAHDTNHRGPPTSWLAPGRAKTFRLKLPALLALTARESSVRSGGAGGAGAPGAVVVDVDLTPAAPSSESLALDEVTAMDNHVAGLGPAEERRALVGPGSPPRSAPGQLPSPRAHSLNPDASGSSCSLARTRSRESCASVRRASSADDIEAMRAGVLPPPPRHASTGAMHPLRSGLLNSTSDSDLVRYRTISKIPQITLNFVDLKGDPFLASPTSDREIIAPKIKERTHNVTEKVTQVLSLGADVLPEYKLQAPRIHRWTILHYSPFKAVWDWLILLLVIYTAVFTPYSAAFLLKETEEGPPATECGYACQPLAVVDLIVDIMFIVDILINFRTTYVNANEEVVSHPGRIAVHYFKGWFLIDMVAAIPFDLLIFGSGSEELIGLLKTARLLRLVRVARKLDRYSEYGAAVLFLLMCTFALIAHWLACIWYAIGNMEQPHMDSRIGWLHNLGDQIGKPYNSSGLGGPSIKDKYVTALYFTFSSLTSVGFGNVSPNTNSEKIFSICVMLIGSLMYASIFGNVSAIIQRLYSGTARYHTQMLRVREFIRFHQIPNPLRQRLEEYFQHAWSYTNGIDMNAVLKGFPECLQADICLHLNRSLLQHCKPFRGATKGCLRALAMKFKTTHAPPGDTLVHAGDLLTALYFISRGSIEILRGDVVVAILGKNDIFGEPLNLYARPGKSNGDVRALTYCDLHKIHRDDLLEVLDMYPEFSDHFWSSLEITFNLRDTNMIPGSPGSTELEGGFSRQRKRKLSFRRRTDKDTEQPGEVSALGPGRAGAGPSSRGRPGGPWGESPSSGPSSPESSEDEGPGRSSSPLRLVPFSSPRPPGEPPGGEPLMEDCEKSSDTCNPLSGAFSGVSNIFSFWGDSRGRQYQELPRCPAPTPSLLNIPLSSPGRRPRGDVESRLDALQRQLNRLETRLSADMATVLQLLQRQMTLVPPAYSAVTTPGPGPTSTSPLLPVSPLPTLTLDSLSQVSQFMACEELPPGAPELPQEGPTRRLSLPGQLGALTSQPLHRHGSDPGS
- measurement description: Test 5: inhibitory activity for hERG channel (whole cell patch clamp, hERG-CHO cells)
- Format: cell-based
- conditions used: hERG-CHO cells, auto patch clamp
Returns: string. Value is y if measured IC50 is below 10 µM, and n if it is greater than or equal to it.

Look over these answered cases.
| molecule | group label |
| --- | --- |
| CCN(CCN1CCC(c2noc3cc(F)ccc23)CC1)C(=O)C1CN(C)CC1O (centres unmarked) | y |
| CC(C)N(CCN1CCC(c2noc3cc(F)ccc23)CC1)C(=O)[C@@H](C)O | y |
| CCN(CCN1CCC(c2noc3cc(F)ccc23)CC1)C(=O)C1(O)CCOCC1 | n |
| CC(C)N(CCN1CCC(c2noc3cc(F)ccc23)CC1)C(=O)[C@H](C)O | y |

In: Lab note: confirm whether the reported IC50 for this molecule is below 10 µM, equality not counting. molecule: CCN(CCN1CCC(c2noc3cc(F)ccc23)CC1)C(=O)C(O)C(C)C (centres unmarked)
Out: y

In: Likewise for "CCN(CCCN1CCC(c2noc3cc(F)ccc23)CC1)C(=O)[C@H](C)O" ?
Out: n
